Below: a set of entries, each annotated with reported growth inhibition.
Assay: NCI Yeast Anticancer Drug Screen. Data for the cln2 rad14 strain (AID 165);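 note: 0% = growth equal to vehicle treated cultures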
Details: S. cerevisiae cln2 rad14 strain, at 50.0 µM, active compounds read high
This is part of a sample that, as a whole, favours compounds with a hit. Of some 79,000 tested, about 15% had one in any assay.
Kindly answer with a numeric value in %, unit omitted.

Consider the following illustrative entries.
Can you share its growth inhibition? I mean this molecule: COc1ccc(NC(=O)C(=O)NO)c(OC)c1 87.9

Which value of growth inhibition has been reported for Clc1ccc(CN2CCCN(Cc3ccc(Cl)cc3)C2c2cc3ccccc3c3ccccc23)cc1 in the records? 33.1

Entry OCc1ccccc1C(c1ccccc1)c1ccccc1 : reported growth inhibition = ? 5.85

# query: growth inhibition of entry COc1ccc(/C=C/C(=O)CCN2CCN(CCC(=O)/C=C/c3ccc(OC)cc3)CC2)cc1 29.9

Return reported growth inhibition; argument: CC(=O)Nc1ccc(S(=O)(=O)N(CCO)CCO)cc1 57

Here's the next entry for you.
Please report the recorded growth inhibition for Nc1cc(F)c2c(c1)Cc1ccccc1-2 . 23.7

###

Assay: NCI Yeast Anticancer Drug Screen. Data for the cln2 rad14 strain (AID 165);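 note: 0% = growth equal to vehicle treated cultures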
Settings: S. cerevisiae cln2 rad14 strain, at 50.0 µM (retest, dose inferred, filed as 5.0), active compounds read high
Compounds without any hit were thinned out: in the full panel of roughly 79,000, 15% have a hit.
If the reported growth inhibition equals or exceeds 70%, assign met. If not, assign not met.

# check: growth inhibition of O=C1C=CC(=O)N1c1ccc(N=Nc2ccccc2)cc1 is greater than or equal to 70% met

Next:
Threshold query (growth inhibition >= 70%) on CC(=O)Nc1ccc(S(=O)(=O)N(CCO)CCO)cc1 not met

Decide: is the reported value of growth inhibition for Cc1nc2cc(Cl)ccc2n1-c1ccccc1 equal to or greater than 70%? met

Evaluate CN(C)CCCN=c1c2ccccc2n(O)c2cccc([N+](=O)[O-])c12 : growth inhibition at minimum 70%? not met

###

Assay: NCI Yeast Anticancer Drug Screen. Data for the rad50 strain (AID 155);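 note: 0% = growth of vehicle-only cultures of the same strain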
Settings: S. cerevisiae rad50 strain growth inhibition; at 50.0 µM
Experimental: Growth inhibition of yeast strains with defined genetic alterations is measured as a screen for potential anti-cancer activity. Selected strains with alterations in DNA damage repair or cell cycle control were exposed to compounds and growth inhibition was measured relative to vehicle treated controls. The strain used in this assay is rad50
The panel holds about 79,000 compounds, 15% with a hit somewhere; the sample as a whole holds those more often. The source made the active and inactive calls. No stated cut-off is given here; in the data, active means growth inhibition above about 70%; inactive means the rest.
Answer with one of the outcomes active, inactive

Illustrative cases are given below, each with its answer.
Could you kindly confirm the outcome this assay logged for COC1CC2CCC(C)[C@](O)(O2)C(=O)C(=O)N2CCCCC2C(=O)OC(C(C)CC2CCC(O)C(OC)C2)CC(=O)C(C)C=C(C)C(OC(=O)CN(C)C)C(OC)C(=O)C(C)CC(C)/C=C/C=C/C=C\1C (some centres undefined) ? active

Outcome? Cc1noc(-c2ccc([N+](=O)[O-])o2)n1 active

What call does the record list for O=[N+]([O-])c1cc2c(cc1S(=O)(=O)O)C1C(C3C2C2(Cl)C(Cl)=C(Cl)C3(Cl)C2(Cl)Cl)C2(Cl)C(Cl)=C(Cl)C1(Cl)C2(Cl)Cl (centres undefined) ? inactive

Recorded call for CC(NNC(=S)N1CCN(c2ccccn2)CC1)c1nccc2ccccc12 (centres undefined) ? inactive

New cases:
Could you kindly confirm the outcome this assay logged for c1cc2c3c(cccc3c1)-c1cnccc1-2 ? active

Which outcome was entered for the compound CC[N+](C)(C)c1ccccc1 in this test? inactive

For this compound, state the assay outcome: Cc1nc2c(nc1C)C(=O)c1ccccc1C2=O active

What classification did O=C(OC1COC(OC(=O)c2ccccc2)C(OC(=O)c2ccccc2)C1OC(=O)c1ccccc1)c1ccccc1 (centres undefined) end up with in this test? inactive

Any idea what this test logged for CN(C)c1ccc(/C=C/c2ccc3ccccc3[n+]2C)cc1 ? inactive

Cited source for all entries: PubChem BioAssay (NCI)
